These entries and their values trace back to a melting point compilation (Tetko et al.; mined from patent text by program, amines drawn as free bases though some values may be those of a salt).

Endpoint: melting point

{"columns": ["Compound", "Recorded value"],
 "data": [
  ["CC(C)(C)OC(=O)N1CC(Oc2ccc(N)nc2)C1", "83 to 84 °C"],
  ["CC(=O)SC(CC(=O)c1ccc(Cl)c(Cl)c1)C(=O)O (stereo not given)", "102 to 105 °C"],
  ["COc1cccc(OC)c1-c1ccc(C[C@H](NC(=O)c2c(Cl)cc(-c3ccn[nH]3)cc2Cl)C(=O)O)cc1", "156 °C"],
  ["Oc1ccc(C2CCOC2(c2ccccc2)c2ccc(O)cc2)cc1 (stereo not given)", "194 to 196 °C"],
  ["CCOCCNc1nc(Cl)nc(N[C@@H](C)c2ccccc2)n1", "103 °C"],
  ["O=C(Nc1cccc(Cl)c1)N[C@H]1C[C@H](C(=O)O)Nc2cc(Cl)cc(Cl)c21 (relative stereo)", "173 to 175 °C"],
  ["CCc1cccc(CC)c1NC(=O)Nc1oc2ccc(C)cc2c1-c1ccccc1Cl", "214 to 215 °C"],
  ["CCOc1nc(NCc2ccco2)nc(N2CCN(Cc3ccccn3)CC2)n1", "115 to 117 °C"],
  ["CNC(=O)Cc1ccc(O)cc1", "124 to 125 °C"],
  ["COc1ccc(N2CCOCC2)c2sc(-c3nc4ccc(N5CCOCC5)nc4[nH]3)nc12", "260 to 262 °C"],
  ["CCOC(=O)NC1N=C(c2ccccc2)c2ccccc2-n2c(C)nnc21 (stereo not given)", "198 to 202 °C"],
  ["NS(=O)(=O)c1ccccc1C1=NOCCO1", "131 to 133 °C"],
  ["Nc1c(-c2ccc(Cl)cc2)nc2c(Cl)cc(Cl)cc2c1C(=O)O", "260 to 261 °C"],
  ["COC(=O)N[C@@H]1CCc2ccc(Br)cc2C1", "99 to 100 °C"],
  ["COC(=O)c1ccc(CCNCC(O)c2ccccc2)cc1 (stereo not given)", "105 to 106 °C"],
  ["CSc1cccc2nc3sccn3c(=O)c12", "186 to 189 °C"],
  ["CCCCOC(=O)Nc1nc(C(=NOC2CCCC2)C(=O)OC)ns1", "115 to 118 °C"],
  ["NC(=O)c1[nH]cnc1OC(=O)c1ccc(Cl)cc1", "220 °C"],
  ["CC(CCCc1ccc(F)cc1)c1cc(NC(N)=O)c2c(c1)OC(C)(C)c1ccncc1-2 (stereo not given)", "179 to 181 °C"],
  ["CC(C)c1c(C(=O)Nc2ccccc2)c(-c2ccccc2)c(-c2ccc(F)cc2)n1CC[C@@H]1C[C@H](CC(=O)OC(C)(C)C)OC(C)(C)O1", "140 to 142 °C"],
  ["CC(C(N)=O)c1ccc2c(c1)Sc1ccccc1CC2=O (stereo not given)", "178 to 179 °C"],
  ["COc1cc(OCCBr)ccc1C=O", "78 to 79 °C"],
  ["CC(C)(C)CNS(=O)(=O)c1cccc(NC(=O)c2cnn3c(C(F)(F)F)cc(-c4ccc(C(F)(F)F)cc4)nc23)c1", "231 °C"],
  ["Cc1cc(C)nc(N2CC=C(N)N2)n1", "205 °C"],
  ["CC(C)CC(NC(=O)OCc1ccccc1)C(=O)NC(C(=O)Nc1n[nH]c(=S)s1)C(C)C (stereo not given)", "146 °C"],
  ["O=[N+]([O-])c1oc2ccc(CCO)cc2c1-c1ccc(CO)cc1", "135 to 137 °C"],
  ["CCOC(=O)c1ccc(C(=O)CN2CCN(c3ccncc3)CC2)cc1", "147 to 149 °C"],
  ["Cc1nn(C)c(/C(OC(=O)C(C)(C)C)=C(\\C#N)c2ccc(C(C)(C)C)cc2)c1C", "110 °C"],
  ["O=C(NC(Cc1ccc(OCc2ccccc2)cc1)C(=O)O)c1cn2cc(-c3ccccc3F)ccc2n1 (stereo not given)", "238 °C"],
  ["O=[N+]([O-])c1cc(OCc2ccccc2)c2ccccc2c1CCO", "82 to 90 °C"],
  ["CN(C)CCCC1(C#N)c2ccccc2COc2ccccc21 (stereo not given)", "112 to 114 °C"],
  ["O=c1[nH]c2cc3cc(N4CCCC4)ccc3nc2[nH]1", "> 300 °C"],
  ["C#CCN(C(=O)c1cc(C)oc1C(F)(F)F)S(=O)(=O)c1cccc(Cl)c1", "70 to 72 °C"],
  ["CCCCC1(O)c2cc(NC(=O)CC(C)(C)C)c(C)c(C)c2OC1(C)C (stereo not given)", "161 to 162 °C"],
  ["O=C(CCl)Nc1ccc2c(c1NC(=O)c1ccco1)C(=O)c1ccccc1C2=O", "211 to 212 °C"],
  ["CCOC(=O)C1=C(C)NC(C)=C(C(=O)OCC)C1c1ccccc1OCc1ccccc1", "134 to 136 °C"],
  ["Cc1cc(SCc2sc(-c3ccc(C(F)(F)F)cc3)nc2C)ccc1OCC(=O)O", "139 to 141 °C"],
  ["O=C(c1cc(N2CCC3(CC2)OCCO3)ccn1)N(O)Cc1ccccc1", "98 to 102 °C"],
  ["COc1ccc2c(c1)C(C)(Cl)C(=S)N2 (stereo not given)", "202 to 204 °C"],
  ["COc1cccc(OC)c1-c1ccc(C[C@H](NC(=O)c2c(Cl)ccc(-c3c(C)noc3C)c2Cl)C(=O)O)cc1", "145 °C"]
]}
